Property: GI50; scope: individual molecules
- System: UACC-257
- ASSAY_COMMENT: NCI tumour cell line growth inhibition, 48 h
Activity calls are given as the source filed them. Rule as the data show it: active = GI50 up to about 1.1 µM and inactive = higher.
ASSAY_METRIC: GI50

molecule="CC1(C)OC(=S)N(c2ccccc2)C12C=Cc1ccccc1O2 (stereo unspecified)" measured_result="42.1 µM (inactive)"
molecule=O=C(c1ccc2ccccc2c1)C1S(=O)(=O)OCCOS1(=O)=O measured_result="> 100 µM (inactive)"
molecule=O=[N+]([O-])c1cc(-c2nnc(S)[nH]2)ccc1O measured_result="> 100 µM (inactive)"
molecule="C/C=C\\C(C)=C/C(C)C(=O)CC(O)CC1CC(=O)NC(=O)C1 (stereo unspecified)" measured_result="22.2 µM (inactive)"
molecule=Clc1ccc2[nH]c(CCSCCc3nc4ccc(Cl)cc4[nH]3)nc2c1 measured_result="12.7 µM (inactive)"
molecule=COc1cc2oc(=O)cc(C)c2cc1O measured_result="> 100 µM (inactive)"
molecule=Cn1c2cc(Cl)ccc2c2ccc3c(c21)C(=O)C=CC3=O measured_result="26.4 µM (inactive)"
molecule=N=C(N)N/N=C/c1c(-c2ccccc2)nc2ccn3c(/C=N/N=C(N)N)c(-c4ccccc4)nc3n12 measured_result="23.5 µM (inactive)"
molecule=O=C(O)CCCc1cc2c(s1)-c1cccc3cccc-2c13 measured_result="22.6 µM (inactive)"
molecule=CO/C(N)=C(C#N)/N=C/c1ccccc1 measured_result="> 100 µM (inactive)"
molecule="CC(=O)OCC12CN(C#N)C3C4COC(CC41)C1(C(=O)N(C)c4ccccc41)C32 (stereo unspecified)" measured_result="16.9 µM (inactive)"
molecule=Cc1csc2[n+]1C(=O)/C(=C\c1ccc([N+](=O)[O-])cc1)S2 measured_result="29.9 µM (inactive)"
molecule="Cc1cccc(N(C(=O)Nc2ccc(Cl)c(Cl)c2)C2=NCC(C)S2)c1 (stereo unspecified)" measured_result="42.9 µM (inactive)"
molecule=O=C1C=C(Nc2ccc(Cl)cc2Cl)c2ccccc2C1=O measured_result="35 µM (inactive)"
molecule=CCNC1=C(NC(=O)c2ccccc2)C(=O)c2ccccc2C1=O measured_result="23.4 µM (inactive)"
molecule=[N-]=[N+]=C(C(=O)C(=[N+]=[N-])C(=O)c1ccccc1)C(=O)c1ccccc1 measured_result="> 100 µM (inactive)"
molecule=Cc1ccc(N)c(S)c1 measured_result="23.3 µM (inactive)"
molecule="COC(=O)c1cncc2c1CC1C3(C(=O)OC)C=NC(C4C(CO)=CCC43)C21C (stereo unspecified)" measured_result="> 100 µM (inactive)"
molecule=O=C1C[C@H](Sc2ccccc2)C2(OCCO2)[C@H]2ON3CCC[C@@H]3[C@@H]12 measured_result="2.72 µM (inactive)"
molecule=COc1ccc(-c2c3c(cc4cc5c(cc24)OCO5)C(=O)OC3)cc1OC measured_result="2.07 µM (inactive)"
molecule=CC(=O)c1nc2ccccc2n1CC(=O)c1ccc([N+](=O)[O-])cc1 measured_result="33.6 µM (inactive)"

----------
- Test system: EKVX
- ASSAY_COMMENT: NCI tumour cell line growth inhibition, 48 h
Activity calls are given as the source filed them. Rule as the data show it: active = GI50 up to about 1.1 µM and inactive = higher.
ASSAY_METRIC: GI50

molecule=O=C1C=C(Nc2ccc(Cl)cc2Cl)c2ccccc2C1=O tested_target=EKVX measured_result="> 100 µM (inactive)"
molecule=CN/C(=N\N=C1/C(=O)Nc2ccccc21)SCC(=O)c1ccc(Br)cc1 tested_target=EKVX measured_result="22.3 µM (inactive)"
molecule=N#CCC(=O)Nc1cccc(C(F)(F)F)c1 tested_target=EKVX measured_result="> 100 µM (inactive)"
molecule=COc1cc(Nc2nc3ccccc3nc2-c2cccs2)cc(OC)c1OC tested_target=EKVX measured_result="89.5 µM (inactive)"
molecule="CC(NC(=O)Cc1ccccc1)NC(=O)C(C)C(=O)Nc1ccccc1 (stereo not given)" tested_target=EKVX measured_result="> 100 µM (inactive)"
